Tested on: COLO 205 colon
assay.explanation: NCI tumour cell line growth inhibition, 48 h
Reported TGI values for a set of molecules

Solved cases (4 shown):
{"molecule": "COC(=O)CCC(=O)Nc1ccc(Cl)cc1C", "endpoint.value": "> 100 µM"}
{"molecule": "COC(=O)C(Cc1c[nH]c2ccccc12)NC(=O)C(Cc1cnc[nH]1)NC(=O)C1CCC(=O)N1C(=O)OCc1ccccc1 (stereo not drawn)", "endpoint.value": "> 100 µM"}
{"molecule": "Cc1cccc(-c2nnc3s/c(=C\\c4ccc(N(C)C)cc4)c(=O)n23)c1", "endpoint.value": "> 100 µM"}
{"molecule": "S=C(NCc1ccccc1)Nc1sc(=NCc2ccccc2)nc2sc3c(c12)CCN(N1CCc2c(sc4nc(=NCc5ccccc5)sc(NC(=S)NCc5ccccc5)c24)C1)C3", "endpoint.value": "> 100 µM"}

Q: Give TGI for `O=c1cc(-c2ccc(F)cc2)[nH]c2ncccc12`
A: 60.3 µM

Q: Give TGI for CC(C)(C)C1=C(Br)C(F)(C(C)(C)C)OP1(=O)c1ccccc1 (stereo not drawn)
A: 29.4 µM

Q: Give TGI for `COC(=O)[C@H](Cc1ccccc1)NC(=O)c1ccc(CNC(=O)/C=C/c2ccc(OCc3ccccc3)cc2)cc1`
A: > 100 µM

Q: Give TGI for `COc1ccc2[nH]cc(CCNC(=O)[C@H](Cc3ccc(O)cc3)NC(=O)[C@@H](NCC(F)(F)F)C(C)C)c2c1`
A: > 100 µM

---

Reported TGI values for a set of compounds
Tested on: HS 578T breast
assay.explanation: NCI tumour cell line growth inhibition, 48 h

{"compound": "O=S(=O)(O)c1ccc(N=Nc2ccccc2)cc1", "TGI": "> 100 µM"}
{"compound": "COc1cc2nc(N3CCCN(C)CC3)nc(NC3CCN(Cc4ccccc4)CC3)c2cc1OC", "TGI": "5.59 µM"}
{"compound": "CCOC(=O)c1c(O)cn2c1[nH]c1cccc3cccc2c31", "TGI": "> 100 µM"}
{"compound": "O=C(O)c1nc2cc(Cl)ccc2[nH]c1=O", "TGI": "> 100 µM"}
{"compound": "Cc1ccc2nc3ccccc3c(C3C4C(=O)N(c5ccc(F)cc5)C(=O)C4ON3C(C(N)=O)c3ccccc3)c2c1 (configuration not stated)", "TGI": "> 100 µM"}

Q: Give TGI for `C(=N\c1nc2cc3sc(/N=C/c4ccccc4)nc3cc2s1)/c1ccccc1`
A: 97.4 µM

Q: Give TGI for `Cc1c(Cn2c(C)nc3c(C(=O)O)cc(N4CCOCC4)cc32)cccc1C(F)(F)F`
A: > 100 µM

Q: Give TGI for `COc1ccc(/C=N\N(C)Cc2cccc3ccsc23)cc1`
A: > 100 µM

Q: Give TGI for `COc1c2c(c3c(c1OC)c(=O)c1ccccc1n3C)OCO2`
A: > 100 µM

Q: Give TGI for CN(O)C(=O)CCC(NC(=O)CCC(N)C(=O)O)C(=O)NCC(=O)O (configuration not stated)
A: > 100 µM

Q: Give TGI for `CCn1c(SCC(=O)N/N=C2\SCC(=O)N2c2ccc(C)cc2)nc2ccccc2c1=O`
A: 41.7 µM

Q: Give TGI for `C#C[C@]1(O)CC[C@H]2[C@@H]3CCC4=C/C(=N\OCCN5CCCCC5)CC[C@]4(C)[C@H]3CC[C@@]21C`
A: 8.86 µM
